System: KM12
assay summary: NCI tumour cell line growth inhibition, 48 h
Active and inactive are the calls of the source. Cut-off read from the data, not from the text of the source: active = GI50 up to about 1.1 µM and inactive = higher.
Would you kindly list GI50 for each of these molecules?

**Query** For the molecule shown here, Cc1ccc(N(C(=O)Nc2ccc(F)c(Cl)c2)C2=NCC(C)S2)cc1 (stereo unspecified) , give the reported GI50.
**Result** 42 µM (inactive)

**Query** Same question, COc1cc(OC(=O)c2c(O)cc(O)c(O)c2C)cc(C)c1C(=O)Oc1cc(C)c(C(=O)O)c(O)c1 this time
**Result** > 100 µM (inactive)

**Query** Same question, CC1=CC2=C(C(N)=O)C(=O)OC2(C)C(c2ccccc2)C1 (stereo unspecified) this time
**Result** > 100 µM (inactive)

**Query** Same question, CCOC(=O)C(NC(=O)c1ccccc1)(N1CCN(c2cc3c(cc2F)c(=O)c(C(=O)O)cn3CC)CC1)C(F)(F)F (stereo unspecified) this time
**Result** 25.9 µM (inactive)

**Query** Same question, COc1ccc(C[n+]2cccc(O)c2)cc1 this time
**Result** > 100 µM (inactive)

**Query** Same question, O/N=C1/Nc2ccccc2C(=S)N2CSCC12 (stereo unspecified) this time
**Result** 33 µM (inactive)

**Query** Same question, CC(C)C(C(=O)O)N1C(=O)c2ccccc2C1=O (stereo unspecified) this time
**Result** > 100 µM (inactive)

**Query** Same question, CC1(C)S[C@@H]2[C@H](NC(=O)/C=C/c3ccccc3)C(=O)N2[C@H]1C(=O)O this time
**Result** > 100 µM (inactive)

**Query** Same question, O=c1c2ccccc2c(=O)n2n1-c1cccc(c1)CSSCc1cccc-2c1 this time
**Result** > 10 µM (inactive)

**Query** Same question, CCOC(=O)C1=c2[nH]c3cccc4cccc(c43)n2C(=O)CC1c1ccccc1 (stereo unspecified) this time
**Result** > 100 µM (inactive)

**Query** Same question, Cc1nc2sc3ccccc3n2c(=O)c1/N=N/c1ccc(Cl)cc1 this time
**Result** > 100 µM (inactive)

**Query** Same question, CCOC(=O)C1Cc2c(cc3c4c(cccc24)N(C(C)=O)C3)N(C)C1 (stereo unspecified) this time
**Result** 4.17 µM (inactive)

**Query** Same question, CCC[C@@H]1C(=O)N=C(N)N1C(=O)OCc1ccccc1 this time
**Result** > 100 µM (inactive)

**Query** Same question, CC(=O)NNc1nc(C)c(C(=O)/C=C/c2ccccc2Cl)s1 this time
**Result** > 100 µM (inactive)

**Query** Same question, Nc1nnc2ccc(Cl)cc2[n+]1[O-] this time
**Result** > 100 µM (inactive)

**Query** Same question, NC(=O)N/N=C\CC(O)(C(F)(F)Cl)C(F)(F)Cl this time
**Result** > 10 µM (inactive)

**Query** Same question, CCC[C@H]1O[C@@H]2CC(=O)O[C@@H]2C2=C1C(=O)C=CC2=O this time
**Result** 23.6 µM (inactive)

**Query** Same question, CC#CC(O)(C(=O)OC1CCCN(C)C1)C1=CC=CCC1 (stereo unspecified) this time
**Result** > 100 µM (inactive)

**Query** Same question, Clc1nc2c(N3CCCC3)nc(N3CCNCC3)nc2[nH]1 this time
**Result** 18.1 µM (inactive)

**Query** Same question, CC1CCC2C(C(=O)O[C@H]3C4C=CO[C@@H](OC5OC(CO)C(O)C(O)C5O)C4[C@@]4(CO)O[C@@H]34)=CO[C@@H](OC3OC(CO)C(O)C(O)C3O)C12 (stereo partly specified) this time
**Result** > 10 µM (inactive)

**Query** Same question, CNC(=O)C(C)C1C(=O)/C(=C(O)/C=C\C(C)=C\C(C)C2OC3(C)OC(C=CC34CO4)C2C)C(=O)N1C1CCC(O)C(C)O1 (stereo unspecified) this time
**Result** > 100 µM (inactive)
